The origin of these recorded values is patent US20090117124A1.

- test-system: T1, human IgG1 (Biodesign, Cat. No. A50183H) (human)
- T1 construct: Bought immunoglobulin coated on the plate
- test-method-notes: ELISA on coated immunoglobulin

[
  {
    "binder": "5.396.1 (recombinant) (antibody, human IgG2, kappa, V domains shown, Fully human IgG2 kappa, expressed in 293 Freestyle cells; also called recombinant 5.396.1) VH: QVQLQQWGAGLLKPSETLSLTCAVYGGSFSGYYWSWIRQPPGKGLEWIGEIHHSGSTNYNPSLKSRVTISVDTSKNQFSLKLSSVTAADTAVYYCARDNWNDSFYYYYGMDVWGQGTTVTVSS VL: DIQMTQSPSSLSASVGDRVTITCRASQGISNHLAWFQQKPGKAPKSLIYAASSLQSGVPSKFSGSGSGTDFTLTISSLQPEDFATYYCQQYNRHPFTFGPGTKVDIKR",
    "A290 nm": "0.07 A290 nm"
  },
  {
    "binder": "5.396.1 Hc-S103N Lc-K61R (antibody, human IgG2, kappa, V domains shown, Human IgG2 kappa; leader omitted; also called 5.396.1 (S103N/K61R); 5.396.1 S103N/K61R) VH: QVQLQQWGAGLLKPSETLSLTCAVYGGSFSGYYWSWIRQPPGKGLEWIGEIHHSGSTNYNPSLKSRVTISVDTSKNQFSLKLSSVTAADTAVYYCARDNWNDNFYYYYGMDVWGQGTTVTVSS VL: DIQMTQSPSSLSASVGDRVTITCRASQGISNHLAWFQQKPGKAPKSLIYAASSLQSGVPSRFSGSGSGTDFTLTISSLQPEDFATYYCQQYNRHPFTFGPGTKVDIKR",
    "A290 nm": "0.08 A290 nm"
  },
  {
    "binder": "6.605.1 (recombinant) (antibody, human IgG2, kappa, V domains shown, Human IgG2 kappa; leader omitted; also called recombinant 6.605.1) VH: QVHLVQSGAEVKMPGASVKVSCKASGYTFTSYGISWVRQAPGQGLEWMGWISAYNGNTNYAQKLQGRITMTTDTSTSTAYMDLRSLRSDDTAVYYCARDGDYYDPFDYWGQGTLVTVSS VL: DIQMTQSPSSLSASVGDRVTITCRTSQSISNWLNWYQQKPGKAPKLLIYGASTLKSGVPSRFSGSESGTDFTLTISSLQPEDFATYYCQQSYSTPPTFGQGTKVEIKR",
    "A290 nm": "0.07 A290 nm"
  },
  {
    "binder": "6.605.1 Hc-H3Q, M13K, D82E Lc-T25A, T53S (antibody, human IgG2, kappa, V domains shown, Human IgG2 kappa; leader omitted; also called 6.605.1 (H3Q, M13K, D82E-T25A, T53S); 6.605.1 QKE/AS) VH: QVQLVQSGAEVKKPGASVKVSCKASGYTFTSYGISWVRQAPGQGLEWMGWISAYNGNTNYAQKLQGRITMTTDTSTSTAYMELRSLRSDDTAVYYCARDGDYYDPFDYWGQGTLVTVSS VL: DIQMTQSPSSLSASVGDRVTITCRASQSISNWLNWYQQKPGKAPKLLIYGASSLKSGVPSRFSGSESGTDFTLTISSLQPEDFATYYCQQSYSTPPTFGQGTKVEIKR",
    "A290 nm": "0.07 A290 nm"
  }
]
